Cited source for all entries: PubChem BioAssay (NCI)

Test system: HS 578T breast
assay_remarks: NCI tumour cell line growth inhibition, 48 h
Could you please report measured GI50 for the items listed next?

Form: compound = O=c1cc(N2CCN(CCCCCOc3cc(O)c4c(=O)cc(-c5ccccc5)oc4c3)CC2)c2ccccc2o1 ; GI50 = > 100 µM

Lab book: GI50 of COc1cc2c(cc1OC)-c1ccc3cc4c(cc3c1N(CCCn1ccnc1)C2)OCO4 noted as 5.75 µM

Looking up CCN(Cc1ccccc1)c1ccc(CO)c(Cl)c1 , I found its GI50 recorded as 23.2 µM

The compound identified as C[C@]12CC[C@@H]3c4cc(-c5ccc(F)cc5)c(O)cc4CC[C@H]3[C@@H]1CC[C@@H]2O registered its GI50 at 4.84 µM

Field GI50 (entry COC(=O)c1cc2c3ccccc3n3c(=O)c4cc5ccccc5nc4c(n1)c23 ) reads > 100 µM
